- Method Summary: Phase I study CXR1002-001: plasma pharmacokinetics (LC-MS/MS)
- Format: in vivo, human
- Condition Notes: human, plasma, oral, 200 mg, Patient 008 Dose 200 mg; 3 hr; read-out: Concentration
Measured Endpoint: concentration at 3 hr (µM)
Write down the numeric answer in µM and omit the unit.

### Prompt Query (compound): O=C(O)C(F)(F)C(F)(F)C(F)(F)C(F)(F)C(F)(F)C(F)(F)C(F)(F)F ; field requested: concentration at 3 hr
### Response 102

====

- Method Summary: Phase I study CXR1002-001: plasma pharmacokinetics (LC-MS/MS)
- Format: in vivo, human
- Condition Notes: human, plasma, oral, 600 mg, Patient 020, 600 mg, person, plasma, 192 hr (day 9); read-out: Concentration
Measured Endpoint: concentration at 192 h (µM)
Write down the numeric answer in µM and omit the unit.

### Prompt Query (compound): O=C(O)C(F)(F)C(F)(F)C(F)(F)C(F)(F)C(F)(F)C(F)(F)C(F)(F)F ; field requested: concentration at 192 h
### Response 268

====

- Method Summary: Phase I study CXR1002-001: plasma pharmacokinetics (LC-MS/MS)
- Type: in vivo, human
- Condition Notes: human, plasma, oral, 1200 mg, Patient 035, 1200 mg, person, plasma, 2 hr; read-out: Concentration
Measured Endpoint: concentration at 2 hr (µM)
Write down the numeric answer in µM and omit the unit.

### Prompt Query (compound): O=C(O)C(F)(F)C(F)(F)C(F)(F)C(F)(F)C(F)(F)C(F)(F)C(F)(F)F ; field requested: concentration at 2 hr
### Response 298

====

- Method Summary: Phase I study CXR1002-001: plasma pharmacokinetics (LC-MS/MS)
- Assay type: in vivo, human
- Condition Notes: human, plasma, oral, 300 mg, Patient 013 Dose 300 mg; 3 hr; read-out: Concentration
Measured Endpoint: concentration at 3 h (µM)
Write down the numeric answer in µM and omit the unit.

### Prompt Query (molecule): O=C(O)C(F)(F)C(F)(F)C(F)(F)C(F)(F)C(F)(F)C(F)(F)C(F)(F)F ; field requested: concentration at 3 h
### Response 76

====

- Method Summary: Phase I study CXR1002-001: plasma pharmacokinetics (LC-MS/MS)
- Assay type: in vivo, human
- Condition Notes: human, plasma, oral, 300 mg, Patient 011 Dose 300 mg; 339 hr; read-out: Concentration
Measured Endpoint: concentration at 339 h (µM)
Write down the numeric answer in µM and omit the unit.

### Prompt Query (molecule): O=C(O)C(F)(F)C(F)(F)C(F)(F)C(F)(F)C(F)(F)C(F)(F)C(F)(F)F ; field requested: concentration at 339 h
### Response 160

====

- Method Summary: Phase I study CXR1002-001: plasma pharmacokinetics (LC-MS/MS)
- Type: in vivo, human
- Condition Notes: human, plasma, oral, 300 mg, Patient 014 Dose 300 mg; 504 hr (Day 22); read-out: Concentration
Measured Endpoint: concentration at 504 h (µM)
Write down the numeric answer in µM and omit the unit.

### Prompt Query (compound): O=C(O)C(F)(F)C(F)(F)C(F)(F)C(F)(F)C(F)(F)C(F)(F)C(F)(F)F ; field requested: concentration at 504 h
### Response 288

====

- Method Summary: Phase I study CXR1002-001: plasma pharmacokinetics (LC-MS/MS)
- Format: in vivo, human
- Condition Notes: human, plasma, oral, 1200 mg, Patient 033, 1200 mg, person, plasma, 508 hr; read-out: Concentration
Measured Endpoint: concentration at 508 hr (µM)
Write down the numeric answer in µM and omit the unit.

### Prompt Query (molecule): O=C(O)C(F)(F)C(F)(F)C(F)(F)C(F)(F)C(F)(F)C(F)(F)C(F)(F)F ; field requested: concentration at 508 hr
### Response 1010
